Source: ChEMBL document CHEMBL5360551

We begin with a simple list: items and their reported Emax.
# Target System: Putative P2Y purinoceptor 10 (Mus musculus)
# Sequence (Q8BFU7 whole entry): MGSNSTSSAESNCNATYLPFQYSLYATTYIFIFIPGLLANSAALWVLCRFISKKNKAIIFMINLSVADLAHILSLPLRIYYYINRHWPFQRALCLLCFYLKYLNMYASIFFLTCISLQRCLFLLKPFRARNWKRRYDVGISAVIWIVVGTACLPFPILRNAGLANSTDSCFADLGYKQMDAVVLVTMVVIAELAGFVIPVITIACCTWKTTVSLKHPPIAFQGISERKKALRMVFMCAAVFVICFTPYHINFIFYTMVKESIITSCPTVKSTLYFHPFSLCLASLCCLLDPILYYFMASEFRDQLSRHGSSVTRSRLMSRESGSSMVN
# Assay Summary: Agonist activity at mouse LPS2/P2Y10 transfected in HEK293-A cells co-transfected with AP-TGFalpha assessed as AP-TGFalpha release by TGFalpha shedding assay relative to LysoPS
# Assay type: functional, cell-based
# Measurement Context: filed as agonist
Quantity: Emax

| Smiles Structure | Quantity | Value Observed |
| --- | --- | --- |
| CCc1ccc(-c2ccc(Oc3ccccc3CCC(=O)OCCCOP(=O)(O)OC[C@H](N)C(=O)O)cc2)cc1 | Emax | 98% |
| CC(C)(C)c1cccc(-c2ccc(Oc3ccccc3CCC(=O)OCCCOP(=O)(O)OC[C@H](N)C(=O)O)cc2)c1 | Emax | 115% |
| N[C@@H](COP(=O)(O)OCCCOC(=O)CCc1ccccc1Oc1ccccc1)C(=O)O | Emax | 93% |
| N[C@@H](COP(=O)(O)OCCCOC(=O)CCc1ccccc1OCc1cccc(-c2ccccc2)c1)C(=O)O | Emax | 131% |
| CC(C)(C)c1cc(-c2cccc(COc3ccccc3CCC(=O)OCCCOP(=O)(O)OC[C@H](N)C(=O)O)c2)cc(C(C)(C)C)c1 | Emax | 109% |
| Nc1ccc(Oc2ccccc2CCC(=O)OCCCOP(=O)(O)OC[C@H](N)C(=O)O)cc1 | Emax | 59% |
| CC(C)(C)c1cccc(Oc2ccccc2CCC(=O)OCCCOP(=O)(O)OC[C@H](N)C(=O)O)c1 | Emax | 113% |
| Cc1cc(C)cc(-c2cccc(COc3ccccc3CCC(=O)OCCCOP(=O)(O)OC[C@H](N)C(=O)O)c2)c1 | Emax | 114% |

* * *

# Target System: UniProtKB Q8BFU7
# Assay Summary: Agonist activity at mouse LPS2/P2Y10 transfected in HEK293-A cells co-transfected with AP-TGFalpha assessed as AP-TGFalpha release by TGFalpha shedding assay
# Format: functional, cell-based
# Measurement Context: read-out: EC50
pEC50: −log10 of the molar value.

| Smiles Structure | Target System | Comparator | pEC50 |
| --- | --- | --- | --- |
| N[C@@H](COP(=O)(O)OCCOC(=O)CC(=O)Cc1ccccc1Oc1ccc(-c2ccccc2)cc1)C(=O)O | UniProtKB Q8BFU7 | < | 8.52 |
| N[C@@H](COP(=O)(O)OCCCOC(=O)CCc1ccccc1Oc1cccc(-c2ccccc2)c1)C(=O)O | UniProtKB Q8BFU7 | = | 7.54 |
| CC(C)(C)c1cc(Oc2ccccc2CCC(=O)OCCCOP(=O)(O)OC[C@H](N)C(=O)O)cc(C(C)(C)C)c1 | UniProtKB Q8BFU7 | = | 6.70 |
| CCc1ccc(Oc2ccccc2CCC(=O)OCCCOP(=O)(O)OC[C@H](N)C(=O)O)cc1 | UniProtKB Q8BFU7 | = | 6.09 |
| N[C@@H](COP(=O)(O)OCCCOC(=O)CCc1ccccc1Oc1ccc(-c2ccc(C(=O)O)cc2)cc1)C(=O)O | UniProtKB Q8BFU7 | = | 6.77 |

* * *

# Target System: Putative P2Y purinoceptor 10 (Mus musculus)
# Assay Summary: Agonist activity at mouse LPS2/P2Y10 transfected in HEK293-A cells co-transfected with AP-TGFalpha assessed as AP-TGFalpha release by TGFalpha shedding assay
# Format: functional, cell-based
# Measurement Context: read-out: EC50
pEC50: −log10 of the molar value.
We begin with a simple list: items and their reported pEC50.

| Smiles Structure | Comparator | pEC50 |
| --- | --- | --- |
| N[C@@H](COP(=O)(O)OCCCOC(=O)CCc1ccccc1OCc1cccc(Oc2ccccc2)c1)C(=O)O | = | 7.05 |
| N[C@@H](COP(=O)(O)OCCCCCOC(=O)CC(=O)Cc1ccccc1Oc1ccc(-c2ccccc2)cc1)C(=O)O | = | 6.62 |
| Cc1cc(C)cc(Oc2ccccc2CCC(=O)OCCCOP(=O)(O)OC[C@H](N)C(=O)O)c1 | = | 6.89 |
| CCc1ccc(-c2ccc(Oc3ccccc3CCC(=O)OCCCOP(=O)(O)OC[C@H](N)C(=O)O)cc2)cc1 | = | 8.59 |
| Cc1ccc(Oc2ccccc2CCC(=O)OCCCOP(=O)(O)OC[C@H](N)C(=O)O)cc1 | = | 6.85 |
| N[C@@H](COP(=O)(O)OCCCOC(=O)CCc1ccccc1Oc1ccc(-c2ccc(-c3ccccc3)cc2)cc1)C(=O)O | = | 8.43 |
| CC(C)(C)c1cc(-c2cccc(COc3ccccc3CCC(=O)OCCCOP(=O)(O)OC[C@H](N)C(=O)O)c2)cc(C(C)(C)C)c1 | = | 7.55 |
| N[C@@H](COP(=O)(O)OCCCOC(=O)CCc1ccccc1Oc1ccc(O)cc1)C(=O)O | < | 8.52 |
